Where do the numbers come from? From patent US8071581B2.

Catalogue of pEC50 values
# Tested on: GTL16
# experimental details: GTL16 cell assay (EC50)
# Assay type: cell-based
# protocol conditions: Homo sapiens, GTL 16; Table 1
# Protocol: Compounds were tested in the following assays in duplicate. 96-well XTT assay: Cells were grown in growth media containing various concentrations of compounds (duplicates) on a 96-well flat bottom plate for 72 hours at 37° C. in 5% CO2. The starting cell number was 5000 cells per well and volume was 120 μl. […]
pEC50: −log10 of the molar value.
endpoint: pEC50

>>> reported("Fc1ccc(Oc2ccc3nnc(Cc4ccc5ncccc5c4)n3n2)cc1 [compound 6]")
"6.00 to 7.00"
>>> reported("CNC(=O)c1cccc(-c2ccc3nnc(Cc4ccc5ncccc5c4)n3n2)c1 [compound 58]")
"5.00 to 6.00"
>>> reported("Cc1ccc2nnc(Cc3c(F)cc4ncc(Br)cc4c3F)n2n1 [compound 28]")
"6.00 to 7.00"
>>> reported("CNC(=O)c1ccc(-c2ccc3nnc(Cc4ccc5ncccc5c4)n3n2)cc1F [compound 30]")
"> 7.00"
>>> reported("CN(C)C(=O)c1cc(F)cc(-c2ccc3nnc(Cc4ccc5ncccc5c4)n3n2)c1 [compound 71]")
"6.00 to 7.00"
>>> reported("Fc1ccc(Oc2ccc3nnc(Cc4ccc5ncccc5c4)n3n2)cc1F [compound 7]")
"6.00 to 7.00"
>>> reported("CNS(=O)(=O)c1cccc(-c2ccc3nnc(Cc4ccc5ncccc5c4)n3n2)c1 [compound 48]")
"> 7.00"
>>> reported("N#Cc1cccc(-c2ccc3nnc(Cc4c(F)cc5ncccc5c4F)n3n2)c1 [compound 88]")
"> 7.00"
>>> reported("CS(=O)(=O)c1ccc(Oc2ccc3nnc(Cc4ccc5ncccc5c4)n3n2)cc1 [compound 12]")
"4.30 to 5.00"
